- Species: Rattus norvegicus
- experimentDescription: Organ distribution of [18F]-ACF radiolabeled compound in rat brain after 30 min
- Assay type: ADME, organism-based
- condition: in vivo, 0.5 h
metric: Dose/g (% dose/organ)
Give just the number in % dose/organ; leave the unit off.

Need Dose/g of CN(C)Cc1ccccc1Sc1cc(F)c(Cl)cc1N , thanks.
1.28

====

- Organism: Rattus norvegicus
- experimentDescription: Organ distribution of [18F]ACF radiolabeled compound in rat blood after 30 min
- Format: ADME, organism-based
- condition: in vivo, 0.5 h
metric: Dose/g (% dose/organ)
Give just the number in % dose/organ; leave the unit off.

Need Dose/g of CN(C)Cc1ccccc1Sc1cc(F)c(Cl)cc1N , thanks.
4.52

The values you see were collected from ChEMBL document CHEMBL1136006.
